Hey, just so you know, these numbers are from patent US12139487B2.

- Test system: BRM-dependent transcription (BRG1 mutant lung cancer cell line A549)
- ASSAY NAME: BRM-dependent transcription, MMTV luciferase reporter in BRG1 mutant A549 cells
- Assay type: cell-based
- EXPERIMENTAL PARAMETERS: MMTV luciferase reporter cell lines, selectivity BRG1/BRM, Table 11
MEASURE NAME: Ratio (MDA-MMTV IC50 (μM) divided by A549-MMTV IC50 (μM))

| TEST SMILES | ASSAYED TARGET | READING |
| --- | --- | --- |
| C=C(F)c1cc(C(=O)NCc2cc3nc(-c4cccc(N5C[C@@H](C)O[C@@H](C)C5)n4)ccc3cn2)cc2c1OCC[C@H](F)S2(=O)=O | BRM-dependent transcription (BRG1 mutant lung cancer cell line A549) | 27.83 |
| COc1nc([C@@H](C)C(F)F)ccc1-c1ccc2cnc(CNC(=O)c3cc(F)c4c(c3)S(=O)(=O)[C@@H](F)CCO4)cc2n1 | BRM-dependent transcription (BRG1 mutant lung cancer cell line A549) | 29.97 |
| [2H]C([2H])([2H])C([2H])([2H])Oc1nc(C(F)F)ccc1-c1ccc2cnc(CNC(=O)c3cc(Cl)c4c(c3)S(=O)(=O)[C@@H](F)COC4)cc2n1 | BRM-dependent transcription (BRG1 mutant lung cancer cell line A549) | 32.03 |
| O=C(NCc1cc2nc(-n3cc(F)c(OC(F)F)n3)ccc2cn1)c1cc(F)c2c(c1)S(=O)(=O)[C@@H](F)COC2 | BRM-dependent transcription (BRG1 mutant lung cancer cell line A549) | 22.61 |
| C[C@@H]1CN(c2cccc(-c3cnc4cnc(CNC(=O)c5cc(F)c6c(c5)S(=O)(=O)[C@@H](F)CCO6)cc4n3)n2)C[C@H](C)O1 | BRM-dependent transcription (BRG1 mutant lung cancer cell line A549) | 22.10 |
| CCOc1nc(C(F)F)ccc1-c1ccc2cnc(CNC(=O)c3cc(C(F)F)c4c(c3)S(=O)(=O)[C@@H](F)COC4)cc2n1 | BRM-dependent transcription (BRG1 mutant lung cancer cell line A549) | 40.24 |

====

- Tested on: BRM-dependent transcription (BRG1 mutant lung cancer cell line A549)
- ASSAY NAME: BRM-dependent transcription, MMTV luciferase reporter in BRG1 mutant A549 cells
- Assay type: cell-based
- EXPERIMENTAL PARAMETERS: MMTV luciferase reporter cell lines, selectivity BRG1/BRM, Table 11
Attribute: Ratio (MDA-MMTV IC50 (μM) divided by A549-MMTV IC50 (μM))
MEASURE NAME: Ratio (MDA-MMTV IC50 (μM) divided by A549-MMTV IC50 (μM))

| COMPOUND | ASSAYED TARGET | READING |
| --- | --- | --- |
| [2H]C([2H])([2H])Oc1ccc(-c2ccc3cnc(CNC(=O)c4cc(Br)c5c(c4)S(=O)(=O)[C@@H](F)COC5)cc3n2)nc1C1CC1(F)F (stereo partly drawn) | BRM-dependent transcription (BRG1 mutant lung cancer cell line A549) | 38.09 |
| CCOc1nc([C@@H](F)CF)ccc1-c1ccc2cnc(CNC(=O)c3cc(Cl)c4c(c3)S(=O)(=O)[C@@H](F)CCO4)cc2n1 | BRM-dependent transcription (BRG1 mutant lung cancer cell line A549) | 32.08 |
| COc1nc([C@@](C)(F)C(F)F)ccc1-c1ccc2cnc(CNC(=O)c3cc(F)c4c(c3)S(=O)(=O)[C@@H](F)CCOC4)cc2n1 | BRM-dependent transcription (BRG1 mutant lung cancer cell line A549) | 17.34 |
